This collection of values is drawn from ChEMBL document CHEMBL3817791.

Test: AUC (0 to last) in CD-1 nude mouse at 70 mg/ml, po
Format: ADME, organism-based
Parameters: dose 70 mg/ml, time 0 - last, route oral
Settings: in vivo
readout-name: AUC(0-t) (ng·h/mL)
The reply should be a number in ng·h/mL, with the unit left off.

**Q:** Which measured AUC(0-t) value corresponds to Cc1cc(-c2cnn3c(NCC4CCOCC4)nc(Oc4ccccc4)nc23)ccc1C(=O)NC1CC1 ?
**A:** 53000

====

Test: Cmax in mouse at 10 mg/kg, po
Format: ADME, organism-based
Set-up: dose 10 mg/kg, route oral
Conditions: in vivo
readout-name: Cmax (ng/mL)
Unit ng/mL implied. Number only.

**Q:** Need Cmax of Cc1cc(-c2cnn3c(NCC4CCOCC4)nc(Oc4cccc(F)c4F)nc23)ccc1C(=O)NC1CC1 , thanks.
**A:** 1600
